# EXPERIMENT: purified protein yield per well (BCA); higher = higher soluble expression
We begin with a simple list: items and their reported purified protein yield per well.

{"columns": ["RECORD SEQUENCE", "purified protein yield per well"],
 "data": [
  ["MFSASTFAYNPAPPPPSPTPTPTPGPLPGQPNDGFQRGPNPSVSLLEAERGPFSVRNARVSSSVRGFGGGTIYYPTGTTGTMGAIVVIPGYVSPESSIAWWGPKMASHGFVVMTIATNRTTDQPSSRATQINAALDYLISQNSTSGSPVRNMIDTDRLGVMGWSMGGGGTLRVASQNRLKAAIPLAPYDTISFRNVDAPTLIFGCESDTVAPVRNHASPFYNQIPAGTDKAFVELNGGSHTCANGGNQYNDVLSRLGVSWMKRHLDNDTRYSQFLCGPNHTSDRDISEYRGNCPY [DP070]", "< 25 µg"]
]}

Please turn your attention to the following entry.
Endpoint output: purified protein yield per well of QTNPYERGPAPTTASLEASRGPFSISSFTVSRPSGYGAGTVYYPTNAGGTVGAIAIVPGFLARQSSINWWGPRLASHGFVVITIDTNSTLDQPASRSRQQLAALDQVAALARTSSSPIYNRVDTTRMGVMGWSMGGGGTLISAQNRPSIKAAAPQAPYNSSTNFSSVTVPTLIFACENDTVAPVNRHASPFYSSMSRNSKQYLEINGGSHSCANSGNSNQPLIGKKGVAWMKRFMDNDTRYTPFACANPNSTRVSEFRTANCS [ESM073] . Value?
< 25 µg
